Source of measurements: patent US20250277029A1

Below: a set of entries, each annotated with reported 50.0 nM Empty Nanodisc binding (relative to 10D10N35Y).
# Assay system: T1, empty-ND (nanodisc without CB1)
# T1 construct: its only protein is the nanodisc scaffold; also called Empty Nanodisc
# Method notes: flow cytometry, yeast-displayed IgG, binding/display ratio
Hi! Could you send only the number? It should be in fold, unit omitted.

Fill in the blank: the reported 50.0 nM Empty Nanodisc binding (relative to 10D10N35Y) of LIBC527984-1 (antibody, V domains shown, also called LIBC527984-1 + VK1 germline fix(es)) VH: QVQLQESGPGLVKPSQTLSLTCTVSGGSIRRGGDYWSWIRQHPGKGLEWIGHIYQTGKTNYNPNFKSRATISVNTYKNQFSLKLSSVTAADTAVYYCARDYDILTGYSYYYYGMDVWGQGTTVTVSS VL: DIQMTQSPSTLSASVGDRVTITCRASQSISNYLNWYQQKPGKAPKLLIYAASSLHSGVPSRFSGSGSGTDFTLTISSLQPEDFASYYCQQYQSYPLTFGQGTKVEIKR is ____. 0.61

Can you handle LIBC528131-1 (antibody, V domains shown, VK3 LC) VH: QVQLQESGPGLVKPSQTLSLTCTVSGGSIRRGGDYWSWIRQHPGKGLEWIGHIYQTGQTAYNPNLEGRATISVNTYKNQFSLKLSSVTAADTAVYYCARDYDILTGYSYYYYGMDVWGQGTTVTVSS VL: EIVLTQSPATLSLSPGERATLSCRASQSVSSYLGWYQQKPGQAPRLLIYGASSRATGIPDRFSGSGSGTDFTLTISRLEPEDFAVYYCQQYGSSPRTFGQGTKVEIKR next? 0.63

Can you handle LIBC527827-1 (antibody, V domains shown, also called LIBC527827-1 + VK1 germline fix(es)) VH: QVQLQESGPGLVKPSQTLSLTCTVSGGSIRRGGDYWGWIRQHPGKGLEWIGHVYQSGQTAYNPKFENRATISVKTYKNQFSLKLSSVTAADTAVYYCARNYDTLTGHSYYYYGMDVWGQGTTVTVSS VL: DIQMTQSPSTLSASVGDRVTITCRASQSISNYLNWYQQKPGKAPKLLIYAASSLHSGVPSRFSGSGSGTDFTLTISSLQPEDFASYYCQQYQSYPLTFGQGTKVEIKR next? 1.16
